Where a name gives a salt, the structure may show the parent alone.
Data export: IC50 values recorded with SARS-CoV-2.
Use µM as the unit, but write only the number.

Compound	Obs Value
Nc1c[nH]c(=O)c2cc(-c3ccccc3)sc12 [Thieno-pyridone]	5.26

Continue with the next compound.
# IC50 (compound: O=C(c1ccc(OCCN2CCCCC2)cc1)c1c(-c2ccc(O)cc2)sc2cc(O)ccc12 [Raloxifene hydrochloride] ) is 15.4

----------
# Experiment Notes: Cytotoxicity assessment in dose response without virus infection
# Conditions: Chlorocebus sabaeus (African green monkey)
Peptide text beside a SMILES is read from it. * marks the point of attachment. Cbz = O=C(OCc1ccccc1)*
Metric: CC50 at 4 days (nM)
Use nM as the unit, but write only the number.

Compound	Metric	Obs Value
CCN(CC)Cc1cc(Nc2ccnc3cc(Cl)ccc23)ccc1O [Amodiaquine]	CC50 at 4 days	16800
COc1cc(NCc2ccc3nc(N)nc(N)c3c2C)cc(OC)c1OC [Trimetrexate]	CC50 at 4 days	1990

# CC50 at 4 days (compound: CC(C)C[C@@H](C=O)NC(=O)[C@H](CC(C)C)NC(=O)[C@H](CC(C)C)NC(=O)OCc1ccccc1 [MG-132] (Cbz-Leu-Leu-Leu-aldehyde) ) is 2900
